# Tested target: HCV cap-dependent translation
# Protocol summary: In vitro translation assay, FF-HCV-Ren construct, cap-dependent (FF luciferase)
pIC50: −log10 of the molar value.
Record form. Attribute: pIC50. Fill in for each entry.

Solved cases (6 shown):
O=C(/C=C/c1nc2ccccc2[nH]1)c1c(-c2ccccc2)c2ccncc2[nH]c1=O [Compound 22] : 4.70 to 5.00
O=C(/C=C/c1ccncc1)c1c(-c2ccccc2)c2cc(Cl)ccc2[nH]c1=O [Compound 28] : 5.00 to 5.70
O=C(/C=C/c1ccc(Cl)s1)c1c(-c2ccccc2)c2cc(Cl)ccc2[nH]c1=O [Compound 113] : 5.00 to 5.70
COc1ccc(-c2c(C(=O)/C=C/c3nc4ccccc4[nH]3)c(=O)[nH]c3ccc(Cl)cc23)cc1 [Compound 3] : 4.70 to 5.00
CN(C)c1ccc(/C=C/C(=O)c2c(-c3ccccc3)c3cc([N+](=O)[O-])ccc3[nH]c2=O)cc1 [Compound 17] : < 4.70
O=C(/C=C/c1cnccn1)c1c(-c2ccccc2)c2cc(Cl)ccc2[nH]c1=O [Compound 52] : 4.70 to 5.00

Could I get pIC50 for every one of these entries?
1. Cc1ccnc(C#CC(=O)c2c(-c3ccccc3)c3cc(Cl)ccc3[nH]c2=O)c1 [Compound 112]
2. O=C(/C=C/c1ccccc1)c1c(-c2cccs2)c2cc(Cl)ccc2[nH]c1=O [Compound 10]
3. Cc1ccc(/C=C/C(=O)c2c(-c3ccccc3)c3cc(Cl)ccc3[nH]c2=O)cc1 [Compound 34]
4. O=C(/C=C/c1cncc(F)c1)c1c(-c2ccc(F)cc2)c2cc(Cl)ccc2[nH]c1=O [Compound 77]
5. O=C(/C=C/c1cc(Cl)ccn1)c1c(-c2ccccc2)c2cc(Cl)ccc2[nH]c1=O [Compound 71]
6. Cc1ccc(-c2c(C(=O)/C=C/c3cncc(F)c3)c(=O)[nH]c3ccc(Cl)cc23)cc1 [Compound 85]

**Result**
1. < 4.70
2. 4.70 to 5.00
3. 5.00 to 5.70
4. 5.00 to 5.70
5. 4.70 to 5.00
6. 5.00 to 5.70

Need pIC50 for each of these compounds.
1. O=C(CCc1cncc(F)c1)c1c(-c2ccccc2)c2cc(Cl)ccc2[nH]c1=O [Compound 67]
2. O=C(/C=C/c1nc2ccccc2n1Cc1ccccc1)c1c(-c2ccccc2)c2cc(Cl)ccc2[nH]c1=O [Compound 55]
3. COc1ccc(/C=C/C(=O)c2c(-c3ccccc3)c3cc(Cl)ccc3[nH]c2=O)c(F)c1 [Compound 43]
4. COc1ccc(-c2c(C(=O)/C=C/c3cncc(F)c3)c(=O)[nH]c3ccc(Cl)cc23)cc1 [Compound 79]
5. O=C(/C=C/c1nc2ccccc2[nH]1)c1c(-c2ccccn2)c2cc(Cl)ccc2[nH]c1=O [Compound 8]

**Result**
["< 4.70", "5.00 to 5.70", "5.00 to 5.70", "5.00 to 5.70", "< 4.70"]

----------
# Tested target: HCV cap-independent translation
# Protocol summary: In vitro translation assay, FF-HCV-Ren construct, cap-independent (Ren luciferase)
Measured endpoint: IC50

O=C(/C=C/c1nc2ccccc2[nH]1)c1c(-c2ccccc2)c2cc(C(F)(F)F)ccc2[nH]c1=O [Compound 19] : 10 to 20 µM

// each listed compound needs a value for IC50
1. O=C(/C=C/c1ccccn1)c1c(-c2cncc(Cl)c2)c2cc(Cl)ccc2[nH]c1=O [Compound 102]
2. O=C(/C=C/c1nc2ccccc2[nH]1)c1c(-c2ccccc2)c2cc([N+](=O)[O-])ccc2[nH]c1=O [Compound 13]
3. O=C(/C=C/c1nc2ccccc2[nH]1)c1c(-c2ccccn2)c2cc(Cl)ccc2[nH]c1=O [Compound 8]

**Result**
1. 10 to 20 µM
2. 2 to 10 µM
3. > 20 µM
